Experiment: Cytotoxicity against human BCP-ALL cells derived from patient 3 after 72 hrs by CellTiter-Glo luminescent cell viability assay
Format: functional, cell-based
experimental.readout: IC50
Param answer (str): number followed by unit.

# chemical.string, IC50
data = [
    ("C[C@H](NC(=O)[C@H](CC(=O)NCC(C)(C)C)NC(=O)c1ccc(C(=O)NO)cc1)C(=O)NCc1ccccc1", "5.23 µM"),
]

Turning now to a further compound:
Record summary for "O=C(CCCCCCNC(=O)c1cnc(N(c2ccccc2)c2ccccc2)nc1)NO" : reported IC50 = 4.45 µM

====

Target: Proteasome Macropain subunit MB1 (Homo sapiens, UniProt P28074)
Sequence (P28074 whole entry): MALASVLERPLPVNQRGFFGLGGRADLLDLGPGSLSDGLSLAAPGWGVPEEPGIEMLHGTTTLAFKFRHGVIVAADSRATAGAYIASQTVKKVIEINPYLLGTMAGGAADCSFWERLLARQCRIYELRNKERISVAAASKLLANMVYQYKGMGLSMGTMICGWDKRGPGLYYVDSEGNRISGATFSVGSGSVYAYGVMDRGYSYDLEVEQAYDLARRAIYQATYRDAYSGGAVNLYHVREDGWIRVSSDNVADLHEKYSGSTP
Assay: Inhibition of chymotrypsin-like activity of 20S proteasome in imatinib-resistant human SUP-B15 cells using Suc-LLVY aminoluciferin as substrate after 2 hrs by proteasome-Glo assay
Format: cell-based
pIC50: −log10 of the molar value.
experimental.readout: pIC50

# chemical.string, pIC50
measured = [
    ("C[C@H](NC(=O)[C@H](CC(=O)NCC(C)(C)C)NC(=O)c1ccc(C(=O)NO)cc1)C(=O)NCc1ccccc1", 6.09),
    ("O=C(CCCCCCC(=O)Nc1ccccc1)NO", "< 4.60"),
]

Record summary for "O=C(CCCCCCNC(=O)c1cnc(N(c2ccccc2)c2ccccc2)nc1)NO" : reported pIC50 = < 4.60

====

Biological target: Histone deacetylase 2 (Homo sapiens, UniProt Q92769)
Sequence (Q92769 whole entry): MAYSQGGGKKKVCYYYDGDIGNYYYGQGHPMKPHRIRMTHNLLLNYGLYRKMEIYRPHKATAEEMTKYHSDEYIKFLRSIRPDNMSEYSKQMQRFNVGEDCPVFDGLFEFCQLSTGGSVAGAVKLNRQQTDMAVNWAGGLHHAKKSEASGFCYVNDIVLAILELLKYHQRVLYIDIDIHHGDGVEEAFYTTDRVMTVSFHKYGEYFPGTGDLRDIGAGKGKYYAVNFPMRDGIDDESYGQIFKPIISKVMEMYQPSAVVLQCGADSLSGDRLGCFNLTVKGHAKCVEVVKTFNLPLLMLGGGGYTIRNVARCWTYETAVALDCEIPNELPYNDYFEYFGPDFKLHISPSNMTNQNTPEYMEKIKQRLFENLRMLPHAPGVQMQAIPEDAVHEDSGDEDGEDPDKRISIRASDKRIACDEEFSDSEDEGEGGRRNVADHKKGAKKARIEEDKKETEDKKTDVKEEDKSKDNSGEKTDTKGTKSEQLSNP
Assay: Inhibition of C-terminal GST-tagged recombinant human HDAC2 expressed in baculovirus infected insect cells using RHKK(Ac)AMC as substrate by fluorescence-based assay
experimental.readout: IC50 (µM)
# number only, unit µM dropped from output

Record summary for "C[C@H](NC(=O)[C@H](CC(=O)NCC(C)(C)C)NC(=O)c1ccc(C(=O)NO)cc1)C(=O)NCc1ccccc1" : reported IC50 = 18

====

Biological target: Proteasome Macropain subunit MB1 (Homo sapiens, UniProt P28074)
Test: Inhibition of chymotrypsin-like activity of 20S proteasome in human HL60 cells using Suc-LLVY aminoluciferin as substrate after 2 hrs by proteasome-Glo assay
Type: cell-based
pIC50: −log10 of the molar value.
Recorded pIC50 for the following compounds

# chemical.string, tested.target, pIC50
rows = [
    ("C[C@H](NC(=O)[C@H](CC(=O)NCC(C)(C)C)NC(=O)c1ccc(C(=O)NO)cc1)C(=O)NCc1ccccc1", "Proteasome Macropain subunit MB1 (Homo sapiens, UniProt P28074)", 6.59),
    ("O=C(CCCCCCC(=O)Nc1ccccc1)NO", "Proteasome Macropain subunit MB1 (Homo sapiens, UniProt P28074)", "< 4.60"),
]

Turning now to a further compound:
Proteasome Macropain subunit MB1 (Homo sapiens, UniProt P28074) assay, compound "O=C(CCCCCCNC(=O)c1cnc(N(c2ccccc2)c2ccccc2)nc1)NO" , recorded pIC50 = < 4.60

====

Assay: Cytotoxicity against human RPMI18226 cells after 72 hrs by CellTiter-Glo luminescent cell viability assay
Format: functional, cell-based
Conditions: RPMI18226, 72 h
experimental.readout: IC50 (nM)
# number only, unit nM dropped from output

# molecule, IC50 (nM)
rows = [
    ("C[C@H](NC(=O)[C@H](CC(=O)NCC(C)(C)C)NC(=O)c1ccc(C(=O)NO)cc1)C(=O)NCc1ccccc1", 1750),
]

Record summary for O=C(CCCCCCNC(=O)c1cnc(N(c2ccccc2)c2ccccc2)nc1)NO [RICOLINOSTAT] : reported IC50 = 1970
